Test system: OVCAR-8 ovarian
Assay: NCI tumour cell line growth inhibition, 48 h
// label = TRUE if TGI is not less than 20 µM, otherwise FALSE

Given the entry `Cc1cc2nc(N)n[n+]([O-])c2cc1C` , answer whether its TGI meets or surpasses 20 µM.
TRUE

Given the entry `O=C1CCCn2c3ccccc3c3ccnc1c32` , answer whether its TGI meets or surpasses 20 µM.
TRUE

Given the entry `O=C(/C=C/c1ccccc1O)CC(=O)/C=C/c1ccccc1O` , answer whether its TGI meets or surpasses 20 µM.
TRUE

Given the entry `c1ccc2c(c1)N=c1ccccc1=P21c2ccccc2Nc2ccccc21` , answer whether its TGI meets or surpasses 20 µM.
FALSE

Given the entry `CCSc1sc(-c2ccc(C)cc2)nc1[P+](c1ccccc1)(c1ccccc1)c1ccccc1` , answer whether its TGI meets or surpasses 20 µM.
FALSE

Given the entry O=C(O)CC(Cc1ccccc1)C(=O)O (stereo unspecified) , answer whether its TGI meets or surpasses 20 µM.
TRUE

Given the entry `COC(=O)c1ccc2c(c1)[n+](=O)c(C(C)=O)c(C(F)(F)F)n2[O-]` , answer whether its TGI meets or surpasses 20 µM.
FALSE

Given the entry `COc1ccc(OC)c(-c2cc(-c3ccc(Cl)cc3)nn2-c2ccc(S(N)(=O)=O)cc2)c1` , answer whether its TGI meets or surpasses 20 µM.
TRUE

Given the entry `O=C1CCCc2ccc3c(c21)CC1(Cc2cc4c(cc2C1)CCCC4)C3` , answer whether its TGI meets or surpasses 20 µM.
TRUE

Given the entry `Nc1nc(-c2ccccc2)cc(-c2ccc(F)cc2)c1-c1ccc(Cl)cc1` , answer whether its TGI meets or surpasses 20 µM.
TRUE

Given the entry `c1ccc(C[P+]2(c3ccccc3)CCCCC2)cc1` , answer whether its TGI meets or surpasses 20 µM.
TRUE

Given the entry `NS(=O)(=O)OC[C@H]1O[C@@H](n2cnc3c(N[C@H]4CCc5ccccc54)ncnc32)[C@H](O)[C@@H]1O` , answer whether its TGI meets or surpasses 20 µM.
FALSE

Given the entry `COc1cccc(-n2cnc3c(N/N=C/c4ccncc4)ncnc32)c1` , answer whether its TGI meets or surpasses 20 µM.
TRUE

Given the entry `C=CC[n+]1c(/C=C2\Sc3ccccc3N2C)sc(-c2ccccc2)c1-c1ccccc1` , answer whether its TGI meets or surpasses 20 µM.
FALSE

Given the entry `O=c1[nH]/c(=C/c2cccs2)c(=O)[nH]/c1=C/c1ccc(OCc2ccccc2)cn1` , answer whether its TGI meets or surpasses 20 µM.
TRUE

Given the entry `COC(=O)c1nc(N)[nH]c(=O)c1-c1ccc(Cl)cc1` , answer whether its TGI meets or surpasses 20 µM.
TRUE

Given the entry `Cc1ccc(N=c2oc3c(ccc4ccccc43)nc2Nc2ccc(C)cc2)cc1` , answer whether its TGI meets or surpasses 20 µM.
TRUE

Given the entry `CC(=O)NC1=NC(=O)/C(=C/c2ccc(Cl)cc2Cl)N1C` , answer whether its TGI meets or surpasses 20 µM.
TRUE

Given the entry `O=C(O)c1cc(/C=C/c2ccc(O)c(O)c2)ccc1O` , answer whether its TGI meets or surpasses 20 µM.
TRUE

Given the entry `Cc1cc([C@H](C#N)c2nc3ccccc3s2)nc(Cl)n1` , answer whether its TGI meets or surpasses 20 µM.
FALSE

Given the entry CC1CN=C(c2ccc3c(c2)Cc2cc(C4=NCC(C)N4)ccc2-3)N1 (stereo unspecified) , answer whether its TGI meets or surpasses 20 µM.
TRUE

Given the entry `COc1ccc(-c2ccc(/C=N/n3cnn(CN4CCN(C)CC4)c3=S)o2)c([N+](=O)[O-])c1` , answer whether its TGI meets or surpasses 20 µM.
TRUE

Given the entry `CCOC(=O)n1c2ccccc2c2c(O)c(OC)c3c(c21)C(=O)NC3=O` , answer whether its TGI meets or surpasses 20 µM.
TRUE

Given the entry `CN(C)c1ccc(C(=C2C=CC(=[N+](C)C)C=C2)c2c(O)c(S(=O)(=O)[O-])cc3cc(S(=O)(=O)O)ccc23)cc1` , answer whether its TGI meets or surpasses 20 µM.
TRUE

Given the entry `Nc1c(Cl)ncnc1NCC1(CO)CCC1` , answer whether its TGI meets or surpasses 20 µM.
TRUE

Given the entry CC(=O)OC1CC[C@@]2(C)C(CC(OC3OC(CO)C(O)C(O)C3O)[C@]3(C)C2CCC24CC23CC[C@H]4C(C)CC(O)[C@@H](O)C(C)(C)O)C1(C)C (stereo partly specified) , answer whether its TGI meets or surpasses 20 µM.
TRUE

Given the entry `O=C1C=Cc2cc3ccccc3c3cccc1c23` , answer whether its TGI meets or surpasses 20 µM.
FALSE

Given the entry `Brc1ccc2c(c1)[C@H]1CCc3c([nH]c4ccccc34)[C@H]1N2` , answer whether its TGI meets or surpasses 20 µM.
TRUE

Given the entry `COC(=O)[C@@]12CC3CN(Cc4c1[nH]c1ccccc41)C2CC3=O` , answer whether its TGI meets or surpasses 20 µM.
TRUE

Given the entry COC12OC3(C4OC41)C(C(=O)O[C@H]3CO[Si](C)(C)C(C)(C)C)C2S(=O)(=O)c1ccccc1 (stereo partly specified) , answer whether its TGI meets or surpasses 20 µM.
TRUE

Given the entry `O=C(NCCc1ccc(F)cc1)c1cc(/C=C/c2cc(O)ccc2O)ccc1O` , answer whether its TGI meets or surpasses 20 µM.
FALSE

Given the entry `c1ccc2c3c(c(N4CCNCC4)nc2c1)CCCC3` , answer whether its TGI meets or surpasses 20 µM.
TRUE

Given the entry COC(=O)CC[C@@H](NC(=O)C(C)NC(=O)COC1C(O)C(COC(=O)CCCCCCCCCCNC(=O)c2ccc([N+](=O)[O-])c3[nH]c4cc(Br)ccc4c(=O)c23)OC(OCc2ccccc2)C1NC(C)=O)C(N)=O (stereo partly specified) , answer whether its TGI meets or surpasses 20 µM.
TRUE

Given the entry O=C(O)C(C1NCCS1)N1Cc2ccccc2C1 (stereo unspecified) , answer whether its TGI meets or surpasses 20 µM.
TRUE

Given the entry `COc1ccc(/C=C/C=C2C(=O)NC(=S)NC2=O)cc1` , answer whether its TGI meets or surpasses 20 µM.
FALSE

Given the entry N#CC1=C(N)NC(=S)NC1c1ccc(-c2ccc(-c3nc4ccccc4s3)cc2)o1 (stereo unspecified) , answer whether its TGI meets or surpasses 20 µM.
TRUE

Given the entry N#CC1(Cc2ccccc2Cl)c2ccccc2C=CN1C(=O)c1ccccc1 (stereo unspecified) , answer whether its TGI meets or surpasses 20 µM.
TRUE

Given the entry C=C1c2c(C)nn(-c3ccccc3)c2N(C)C23C[C@@H]1C1(C)c4c(C)nn(-c5ccccc5)c4N(C)C(C)(C[C@H]12)C3 (stereo partly specified) , answer whether its TGI meets or surpasses 20 µM.
TRUE

Given the entry `CCCCC(=O)Nc1ccc2cc(C(=O)OC)c(=O)[nH]c2n1` , answer whether its TGI meets or surpasses 20 µM.
TRUE

Given the entry `Cc1c(Br)cccc1NC(=O)c1sc2nc3c(cc2c1N)CN(Cc1ccccc1)CC3` , answer whether its TGI meets or surpasses 20 µM.
TRUE

Given the entry `COC1=C(NC(C)=O)C(=O)c2nc3n(c2C1=O)CCC3` , answer whether its TGI meets or surpasses 20 µM.
TRUE
